A collection of binders and their measured FACS binding data
system.under.test: Mutant CD33-GFP M16 (4889AII) on 293FT cells (UniProt P20138)
method.summary: FACS, mutant CD33-GFP on 293FT cells
test.readout: FACS binding data

# binder, experimental.result
records = [
    ("sdCD33_10 (VHH) VHH: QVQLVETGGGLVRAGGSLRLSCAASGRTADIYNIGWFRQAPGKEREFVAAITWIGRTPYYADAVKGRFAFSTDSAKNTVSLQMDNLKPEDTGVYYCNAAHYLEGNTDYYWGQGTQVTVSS", 98.6),
    ("sdCD33_3 (VHH) VHH: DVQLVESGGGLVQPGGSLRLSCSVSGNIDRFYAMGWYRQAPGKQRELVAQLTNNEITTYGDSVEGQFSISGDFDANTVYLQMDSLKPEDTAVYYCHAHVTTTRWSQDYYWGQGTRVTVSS", 98.4),
    ("sdCD33_11 (VHH, sdAb from a naive llama phage library; also called 430; sdAb430) VHH: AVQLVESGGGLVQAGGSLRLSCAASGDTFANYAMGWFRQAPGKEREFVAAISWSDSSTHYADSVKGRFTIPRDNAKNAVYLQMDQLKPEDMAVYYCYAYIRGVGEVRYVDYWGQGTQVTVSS", 97.4),
    ("sdCD33_7 (VHH, sdAb from a naive llama phage library; also called 420; sdAb420) VHH: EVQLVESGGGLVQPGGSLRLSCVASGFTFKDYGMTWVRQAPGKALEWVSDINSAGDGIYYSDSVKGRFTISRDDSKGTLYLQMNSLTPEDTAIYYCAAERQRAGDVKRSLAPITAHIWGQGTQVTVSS", 98.5),
]
